Numbers sourced from patent US9029337B2.

Tested on: human Factor 7 mRNA
Assay: Antisense inhibition of human Factor 7 mRNA in HepB3 cells, 50 nM antisense oligonucleotide, lipofectin
Format: cell-based
Settings: Table 1, 50 nM, lipofectin, approximately 24 hours, relative to untreated control cells
Strand notation (5' to 3'): a small letter for the sugar, then the base; units joined by * are phosphorothioate-linked, units joined directly phosphodiester-linked; [ ] holds rarer units or linkages, { } end groups; capitals alone tell only the bases. e = 2'-O-(2-methoxyethyl) (MOE); [5mC] = 5-methylcytosine; d = 2'-deoxy (DNA)
Rule: MET for % Inhibition not less than 70%, NOT MET for anything less.

Exam item: decide whether the reported % Inhibition for 407905 (antisense e[5mC]*e[5mC]*eA*eG*eT*dT*d[5mC]*dT*dT*dG*dA*dT*dT*dT*dT*eG*eT*e[5mC]*eG*eA) [compound 407905] is at least 70%.
NOT MET

Exam item: decide whether the reported % Inhibition for 407911 (antisense e[5mC]*e[5mC]*e[5mC]*e[5mC]*eT*dT*dG*d[5mC]*dA*dG*dG*dA*dG*dT*d[5mC]*e[5mC]*eT*eT*eG*e[5mC]) [compound 407911] is at least 70%.
MET

Exam item: decide whether the reported % Inhibition for 407954 (antisense e[5mC]*eA*eG*eG*eG*dA*dG*dA*dG*dA*dA*d[5mC]*dA*dT*d[5mC]*e[5mC]*eA*eA*eT*eT) [compound 407954] is at least 70%.
NOT MET

Exam item: decide whether the reported % Inhibition for 407661 (antisense eT*eT*eT*eA*e[5mC]*dA*dA*dG*dA*dG*d[5mC]*dA*dG*dG*dG*eT*eG*e[5mC]*e[5mC]*eT) [compound 407661] is at least 70%.
NOT MET

Exam item: decide whether the reported % Inhibition for 407625 (antisense eT*eT*eG*eT*e[5mC]*dG*dA*dA*dA*d[5mC]*dA*dG*dT*dG*dG*eG*e[5mC]*e[5mC]*eG*e[5mC]) [compound 407625] is at least 70%.
MET

Exam item: decide whether the reported % Inhibition for 407944 (antisense e[5mC]*e[5mC]*eA*eG*eT*dG*dG*dG*dT*dG*dG*d[5mC]*dA*dG*dG*e[5mC]*eA*e[5mC]*e[5mC]*eA) [compound 407944] is at least 70%.
NOT MET

Exam item: decide whether the reported % Inhibition for 407630 (antisense e[5mC]*eA*e[5mC]*eA*eT*dG*dG*dT*d[5mC]*dA*dG*dT*dG*dA*dG*eG*eA*e[5mC]*e[5mC]*eA) [compound 407630] is at least 70%.
NOT MET

Exam item: decide whether the reported % Inhibition for 407896 (antisense e[5mC]*eG*eT*eG*eT*dG*dG*dT*d[5mC]*dA*d[5mC]*dT*dG*d[5mC]*dA*eG*eT*eA*e[5mC]*eT) [compound 407896] is at least 70%.
MET

Exam item: decide whether the reported % Inhibition for 407608 (antisense eT*eA*eT*eA*eG*dG*dA*d[5mC]*dT*dG*dG*dA*dG*d[5mC]*dT*eG*eG*eT*e[5mC]*e[5mC]) [compound 407608] is at least 70%.
NOT MET

Exam item: decide whether the reported % Inhibition for 407916 (antisense eG*eT*eG*eG*e[5mC]*d[5mC]*d[5mC]*dA*d[5mC]*dG*dG*dT*dT*dG*d[5mC]*eG*e[5mC]*eA*eG*e[5mC]) [compound 407916] is at least 70%.
NOT MET

Exam item: decide whether the reported % Inhibition for 407634 (antisense eG*eT*eG*eA*e[5mC]*dT*dG*d[5mC]*dT*dG*d[5mC]*dA*dG*dG*d[5mC]*eA*eG*eT*e[5mC]*e[5mC]) [compound 407634] is at least 70%.
NOT MET

Exam item: decide whether the reported % Inhibition for 403093 (antisense eG*eA*eG*eA*e[5mC]*d[5mC]*d[5mC]*dT*dG*dG*dT*dG*dT*dA*d[5mC]*eA*e[5mC]*e[5mC]*e[5mC]*e[5mC]) [compound 403093] is at least 70%.
MET

Exam item: decide whether the reported % Inhibition for 407649 (antisense eG*eA*eG*eG*eG*dT*dT*d[5mC]*dA*dT*dT*dT*d[5mC]*dA*dG*eT*eG*eA*eT*eG) [compound 407649] is at least 70%.
NOT MET

Exam item: decide whether the reported % Inhibition for 407891 (antisense e[5mC]*eA*eT*eG*eG*dA*d[5mC]*dT*dT*dG*dA*dG*dG*d[5mC]*dA*e[5mC]*eA*e[5mC]*eT*eG) [compound 407891] is at least 70%.
NOT MET

Exam item: decide whether the reported % Inhibition for 407626 (antisense eT*e[5mC]*eT*eT*eG*dA*dT*dT*dT*dT*dG*dT*d[5mC]*dG*dA*eA*eA*e[5mC]*eA*eG) [compound 407626] is at least 70%.
MET

Exam item: decide whether the reported % Inhibition for 407920 (antisense eT*eG*eA*eG*e[5mC]*dG*d[5mC]*dA*dT*dG*dA*dG*d[5mC]*dT*dT*eT*eT*eG*e[5mC]*eA) [compound 407920] is at least 70%.
NOT MET

Exam item: decide whether the reported % Inhibition for 407907 (antisense eA*eA*eT*eG*eA*dG*dA*dA*dG*d[5mC]*dG*d[5mC]*dA*d[5mC]*dG*eA*eA*eG*eG*e[5mC]) [compound 407907] is at least 70%.
NOT MET

Exam item: decide whether the reported % Inhibition for 407658 (antisense eG*e[5mC]*eT*eT*eG*d[5mC]*d[5mC]*dG*dG*dA*dG*dT*d[5mC]*dT*dG*eA*eG*eT*eG*eG) [compound 407658] is at least 70%.
NOT MET

Exam item: decide whether the reported % Inhibition for 407936 (antisense eG*eG*e[5mC]*eA*eT*dT*d[5mC]*dG*d[5mC]*d[5mC]*dA*d[5mC]*d[5mC]*dA*dT*eG*e[5mC]*eA*eT*eG) [compound 407936] is at least 70%.
MET

----------
Test system: human Factor 7 mRNA
Experiment: Dose-dependent antisense inhibition of human Factor 7 in HepB3 cells, lipofectin
Type: cell-based
Settings: Table 7, 100.0 nM, approximately 16 hours
Strand notation (5' to 3'): a small letter for the sugar, then the base; units joined by * are phosphorothioate-linked, units joined directly phosphodiester-linked; [ ] holds rarer units or linkages, { } end groups; capitals alone tell only the bases. e = 2'-O-(2-methoxyethyl) (MOE); [5mC] = 5-methylcytosine; d = 2'-deoxy (DNA)
Rule: condition met for percent inhibition of Factor 7 not less than 90%, condition not met for anything less.

Exam item: decide whether the reported percent inhibition of Factor 7 for 416455 (antisense e[5mC]*eG*e[5mC]*e[5mC]*eG*dG*d[5mC]*dT*d[5mC]*dT*dG*d[5mC]*dT*d[5mC]*dA*eT*e[5mC]*e[5mC]*e[5mC]*e[5mC]) [compound 416455] is at least 90%.
condition not met

Exam item: decide whether the reported percent inhibition of Factor 7 for 407643 (antisense e[5mC]*eA*e[5mC]*eA*e[5mC]*dA*dT*dG*dG*dA*dG*dT*d[5mC]*dA*dG*e[5mC]*eA*eT*e[5mC]*eG) [compound 407643] is at least 90%.
condition met

Exam item: decide whether the reported percent inhibition of Factor 7 for 416477 (antisense e[5mC]*eA*eG*e[5mC]*e[5mC]*dT*dG*dA*dG*dG*d[5mC]*d[5mC]*dA*dG*d[5mC]*eA*eG*eA*eT*e[5mC]) [compound 416477] is at least 90%.
condition not met

Exam item: decide whether the reported percent inhibition of Factor 7 for 407939 (antisense eT*eG*e[5mC]*eA*eG*d[5mC]*d[5mC]*d[5mC]*dG*dG*d[5mC]*dA*d[5mC]*d[5mC]*d[5mC]*eA*eG*e[5mC]*eG*eA) [compound 407939] is at least 90%.
condition not met

----------
For each of the substances below, state its % Inhibition.
System: human Factor 7 mRNA
Assay: Antisense inhibition of human Factor 7 with short (14-mer) oligonucleotides in HepB3 cells, electroporation 1,000 nM
Assay type: cell-based
Details: electroporation, 1,000 nM antisense oligonucleotide, approximately 24 hours, Factor 7 mRNA relative to untreated control cells
Strand notation (5' to 3'): a small letter for the sugar, then the base; units joined by * are phosphorothioate-linked, units joined directly phosphodiester-linked; [ ] holds rarer units or linkages, { } end groups; capitals alone tell only the bases. e = 2'-O-(2-methoxyethyl) (MOE); [5mC] = 5-methylcytosine; d = 2'-deoxy (DNA)
Write the answer as a number in %, unit excluded.

Value lookup for % Inhibition; key = 435483 (antisense e[5mC]*eT*dG*dG*dG*dT*d[5mC]*dA*dT*d[5mC]*dA*dG*e[5mC]*e[5mC]) [compound 435483]
82

Value lookup for % Inhibition; key = 435645 (antisense eG*eG*dA*dG*d[5mC]*dT*dG*dG*dT*d[5mC]*d[5mC]*dT*eT*eG) [compound 435645]
44

Value lookup for % Inhibition; key = 435729 (antisense eA*e[5mC]*dA*dG*d[5mC]*dA*d[5mC]*dA*d[5mC]*dA*dT*dG*eG*eA) [compound 435729]
30

Value lookup for % Inhibition; key = 435495 (antisense eG*eA*dG*dA*d[5mC]*d[5mC]*d[5mC]*dT*dG*dG*dT*dG*eT*eA) [compound 435495]
27

Value lookup for % Inhibition; key = 435761 (antisense e[5mC]*eA*dG*dA*dT*dG*dA*dA*dA*dA*d[5mC]*dT*eT*eG) [compound 435761]
5

Value lookup for % Inhibition; key = 435792 (antisense eT*eG*d[5mC]*dT*dG*dA*dA*dG*dA*dA*dA*d[5mC]*eT*eG) [compound 435792]
9

Value lookup for % Inhibition; key = 435820 (antisense e[5mC]*eA*dT*d[5mC]*d[5mC]*dT*dA*dG*dT*d[5mC]*dA*d[5mC]*eT*eG) [compound 435820]
19

Value lookup for % Inhibition; key = 435789 (antisense e[5mC]*eA*dT*dG*dT*dT*dA*dG*d[5mC]*d[5mC]*dT*dT*eT*eG) [compound 435789]
3

Value lookup for % Inhibition; key = 435487 (antisense eA*eG*dT*d[5mC]*d[5mC]*dT*dG*dG*dG*dT*d[5mC]*dA*eT*e[5mC]) [compound 435487]
36

Value lookup for % Inhibition; key = 435661 (antisense eG*eG*dA*d[5mC]*dA*d[5mC]*d[5mC]*d[5mC]*d[5mC]*dG*dT*d[5mC]*eT*eG) [compound 435661]
18

Value lookup for % Inhibition; key = 435687 (antisense eA*eT*dG*dG*dT*d[5mC]*dA*dG*dT*dG*dA*dG*eG*eA) [compound 435687]
7

Value lookup for % Inhibition; key = 435636 (antisense eG*eA*dG*dA*d[5mC]*d[5mC]*dA*dT*dG*dA*dT*dG*eA*eA) [compound 435636]
13

Value lookup for % Inhibition; key = 435840 (antisense eG*eG*dG*d[5mC]*d[5mC]*d[5mC]*dG*d[5mC]*d[5mC]*dA*d[5mC]*dT*eG*eG) [compound 435840]
0

Value lookup for % Inhibition; key = 435845 (antisense eG*e[5mC]*dT*d[5mC]*dA*dT*dG*dG*d[5mC]*dA*dG*dA*e[5mC]*eA) [compound 435845]
21

Value lookup for % Inhibition; key = 435828 (antisense eG*eA*d[5mC]*d[5mC]*dT*dG*d[5mC]*d[5mC]*d[5mC]*dA*dT*dT*eT*eT) [compound 435828]
0

Value lookup for % Inhibition; key = 435672 (antisense eA*e[5mC]*d[5mC]*d[5mC]*dA*dG*dA*dT*dG*dG*dT*dG*eT*eT) [compound 435672]
12

Value lookup for % Inhibition; key = 435673 (antisense eA*eG*dA*d[5mC]*d[5mC]*dA*d[5mC]*d[5mC]*d[5mC]*dA*dG*dA*eT*eG) [compound 435673]
34

Value lookup for % Inhibition; key = 435500 (antisense eA*e[5mC]*dT*dG*dG*dG*dA*dG*dA*d[5mC]*d[5mC]*d[5mC]*eT*eG) [compound 435500]
49

Value lookup for % Inhibition; key = 435714 (antisense eA*e[5mC]*dT*d[5mC]*dG*dA*dT*dG*dT*dA*d[5mC]*dT*eG*eG) [compound 435714]
3

Value lookup for % Inhibition; key = 435800 (antisense eG*eG*dA*d[5mC]*d[5mC]*d[5mC]*dA*dA*dA*dG*dT*dG*eG*eG) [compound 435800]
0

Value lookup for % Inhibition; key = 435839 (antisense eG*eG*dT*d[5mC]*dA*dG*d[5mC]*dT*dG*dG*dT*d[5mC]*eT*eG) [compound 435839]
14

Value lookup for % Inhibition; key = 435689 (antisense eT*eT*d[5mC]*dG*dG*dG*d[5mC]*dA*dG*dG*d[5mC]*dA*eG*eA) [compound 435689]
23

Value lookup for % Inhibition; key = 435646 (antisense eT*eA*dG*dG*dA*d[5mC]*dT*dG*dG*dA*dG*d[5mC]*eT*eG) [compound 435646]
13

Value lookup for % Inhibition; key = 435801 (antisense e[5mC]*eG*dG*dT*dT*dG*dG*d[5mC]*d[5mC]*dA*dG*dG*e[5mC]*e[5mC]) [compound 435801]
38

Value lookup for % Inhibition; key = 435724 (antisense e[5mC]*eT*dG*dA*dG*dG*d[5mC]*d[5mC]*dA*dG*d[5mC]*dA*eG*eA) [compound 435724]
52

Value lookup for % Inhibition; key = 435684 (antisense eA*eG*d[5mC]*dA*dG*d[5mC]*dG*d[5mC]*dG*dA*dT*dG*eT*e[5mC]) [compound 435684]
56
